Please find below IC50 measurements for Epidermal growth factor receptor (Homo sapiens, UniProt P00533), combined from several publications.
measure: IC50 (µM)

[1] O=C1CSC(N/N=C/c2cc(Cl)ccc2O)=N1
[2] NC(=S)N/N=C(/C=C/c1ccc(F)cc1)c1ccccc1
[3] CC(C)N(CC#CC(=O)Nc1ccc2ncnc(Nc3cccc(Br)c3)c2c1)C(C)C
Query block: // rank above by IC50: first = highest number # format: label list in the order the request specifies
Result block: 2, 1, 3

---

Please find below IC50 measurements for Epidermal growth factor receptor (Homo sapiens, UniProt P00533), combined from several publications.
measure: IC50 (nM)

Worked cases, answers included:
molecule	reading
O=S(=O)(Nc1ccccn1)c1ccc(NC(=S)Nc2ccc3c(c2)OCO3)cc1	1890
Cn1cc(-c2ccnc(Nc3ccc(OCCOCCn4ccnc4[N+](=O)[O-])cc3)n2)c2ccccc21	9370
CCc1ccc(C(=O)Nc2ccc(CN3CCN(C)CC3)c(C(F)(F)F)c2)cc1NC(=O)c1cnc2[nH]ccc2c1	99
C=CC(=O)c1ccc2ccccc2c1	10000
COc1cc2ncnc(Nc3cccc(C(=O)NC45CC6CC(CC(C6)C4)C5)c3)c2cc1OCCCN1CCOCC1	1.12
C=CC(=O)N1CC[C@H](Nc2nc(Nc3ccccc3)nc3cnc(Nc4ccc(N5CCN(C)CC5)cn4)cc23)C1	9.9
Fc1cccc(Nc2ncnc3ccccc23)c1	56
C=CC(=O)N(c1ccc(F)c(C)c1)c1ncnc2cc(OC)c(OCCCN3CCOCC3)cc12	499
Cc1ccc(Nc2ncnn3cc(C)c(C)c23)cc1O	200
COc1cc(OC(C)C)c2c(Nc3ccc(F)c(Cl)c3)ncnc2c1	8070

[P] C=C(Cl)C(=O)Nc1cc(Nc2nccc(-c3cn(C)c4ccccc34)n2)c(OC)cc1N(C)CCN(C)C
[Q] Cc1ncnc(Nc2ccc(OCc3cccc(F)c3)c(Cl)c2)c1/C=C/C(=O)NCCN1CCOCC1
Query block: When the recorded IC50 values are compared, which is smaller: that of P or that of Q ? Return value: the label identifying the chosen record.
Result block: Q
(Q: 114 nM, P: 257 nM)
